Recorded IC50 values for a group of binders are listed next.
biological target: TbtF; experiment: fluorescence polarisation
VALUE KIND: IC50 (nM)

{"BINDER": "MDLNDLPMDVFELADSGVAVESLTAGHGMTAVGASCNCFCYICCSCSSA [TbtA E(−4)A]", "OP": "=", "OBSERVED RESULT": 530}
{"BINDER": "MALNDLPMDVFELADSGVAVESLTAGHGMTEVGASCNCFCYICCSCSSA [TbtA D(−33)A]", "OP": "=", "OBSERVED RESULT": 990}
{"BINDER": "MDLNDAPMDVFELADSGVAVESLTAGHGMTEVGASCNCFCYICCSCSSA [TbtA L(−29)A]", "OP": ">", "OBSERVED RESULT": 10000}
{"BINDER": "MDLNDLPMDVFELADSGVAVESLTAGHGATEVGASCNCFCYICCSCSSA [TbtA M(−6)A]", "OP": "=", "OBSERVED RESULT": 450}
{"BINDER": "MDANDLPMDVFELADSGVAVESLTAGHGMTEVGASCNCFCYICCSCSSA [TbtA L(−32)A]", "OP": "=", "OBSERVED RESULT": 1580}
{"BINDER": "MDLNDLPMDVFELAASGVAVESLTAGHGMTEVGASCNCFCYICCSCSSA [TbtA D(−20)A]", "OP": "=", "OBSERVED RESULT": 1450}
